Let's look at some compounds and their measured Inhibition.
Tested on: HepG2
measurement notes: GSK_TCMDC: Percent inhibition of human HepG2 cell line. Test compounds present at 10uM.
Type: functional
Give just the number in %; leave the unit off.

* O=C(O)C(F)(F)F.O=S(=O)(NCCN1CCCC1)c1ccc(-c2cccc(CNCc3ccccc3)c2)s1 | 44
* CC(C)Sc1nc2c(c(=O)n1Cc1ccco1)C1(CCCC1)Cc1ccccc1-2 | 8
* COc1ccc(C2N=C(N)N=C(N)N2OCc2ccccc2)cc1OC.Cl (centres undefined) | 1
* O=C(NCCCCN1CCCC2c3cccc(O)c3CCC21)c1ccc(-c2ccccc2)cc1 (centres undefined) | 18
* Cc1ccc(F)c(CN2CCC(N3CC(c4ccccc4)(c4ccccc4)OC3=O)CC2)c1Cl | 11
* Cc1[nH]c2ccc(-c3ccc(N(C)C)cc3)cc2c(=O)c1Cl | 0
* CCCCCCN1CCC(CNCc2cccc([N+](=O)[O-])c2)CC1.O=C(O)C(F)(F)F | 16
* Cc1[nH]c2ccccc2c1C1CCN(CCCCNC(=O)c2ccc(-c3ccc(C#N)cc3)cc2)CC1 | 19

Now for another entry.
*Q* Query (compound): `Cc1nnsc1C(=O)Nc1cccc(-c2ccc(-c3nc4cc(F)ccc4[nH]3)cc2)c1` ; field requested: Inhibition
*A* 51

----------
Let's look at some compounds and their measured Inhibition.
Tested on: HepG2
measurement notes: GSK_TCMDC: Percent inhibition of human HepG2 cell line. Test compounds present at 10uM.
Format: functional
Give just the number in %; leave the unit off.

*Q* // fetch HepG2 Inhibition for `CCCOc1cccc(C(=O)N[C@@H](Cc2ccccc2)[C@H](O)CNCc2ccccc2OC)c1`
*A* 11

*Q* // fetch HepG2 Inhibition for `CC(C)(C)c1ccc2[nH]c(-c3ccc(/C=C/C(=O)NCc4ccc(Cl)c(Cl)c4)cc3)nc2c1`
*A* 41

*Q* // fetch HepG2 Inhibition for `Cc1[nH]c(C)c(-c2ccc(-c3ccc(C(F)(F)F)cc3C(F)(F)F)nc2)c(=O)c1Br`
*A* 30

*Q* // fetch HepG2 Inhibition for `Cc1cccc2nc(-c3ccc(-c4ccc(CNCc5ccc(CN)cc5)cc4)s3)[nH]c12.O=C(O)C(F)(F)F`
*A* 4

*Q* // fetch HepG2 Inhibition for `NC(=O)c1ccccc1OCC(=O)Nc1cccc(-c2cccc(-c3nc4ccccc4[nH]3)c2)c1`
*A* 23

----------
Test system: HepG2
measurement notes: GSK_TCMDC: Percent inhibition of human HepG2 cell line. Test compounds present at 10uM.
Format: functional
measured attribute: Inhibition (%)
Give just the number in %; leave the unit off.

* O=C(Nc1ccc(Cn2ncc(N3CCCNCC3)c(Cl)c2=O)cc1)Nc1cccc(C(F)(F)F)c1.O=C(O)C(F)(F)F | 20

*Q* Query (compound): Cc1ccc(C(O)CNc2ccnc(Nc3cccc(-c4csc(C)n4)c3)n2)cc1 (centres undefined) ; field requested: Inhibition
*A* 17

*Q* Query (compound): `O=C(Nc1ccc(OCc2ccccc2)cc1)c1nc2ccccc2nc1Cl` ; field requested: Inhibition
*A* 48

*Q* Query (compound): `COC(=O)c1cccc(CNCc2cccc(-c3ccc(-c4nc5cc(C(F)(F)F)ccc5[nH]4)cc3)c2)c1.O=C(O)C(F)(F)F` ; field requested: Inhibition
*A* 13

*Q* Query (compound): `COc1ccc(O)c(C(=O)NCCc2ccc(OC)c(-c3ccc(C(C)(C)C)cc3)c2)c1` ; field requested: Inhibition
*A* 11

*Q* Query (compound): `Cc1cccc(Cn2c(Cc3ccccc3)nnc2Sc2ccc([N+](=O)[O-])c(C#N)c2)c1` ; field requested: Inhibition
*A* 17

*Q* Query (compound): `COc1cc2c(cc1OCCN1CCC(N3CCCC3)CC1)N(C(=O)/C=C/c1ccccc1Cl)CC2.Cl` ; field requested: Inhibition
*A* 38

*Q* Query (compound): `COc1ccc2nc(N3CCN(C(=O)OC(C)(C)C)CC3)nc(NCCCc3ccccc3)c2c1` ; field requested: Inhibition
*A* 9

*Q* Query (compound): `Cc1ccc(S(=O)(=O)N(CCCNCc2cccc(O)c2)c2ccccc2)cc1` ; field requested: Inhibition
*A* 6

*Q* Query (compound): `CCn1c(SCC(=O)Nc2cc(C(F)(F)F)ccc2Cl)nc2ccccc2c1=O` ; field requested: Inhibition
*A* 8

*Q* Query (compound): `CC(=O)N1CCC(C(=O)Nc2ccc(-c3cccc(-c4nc5cccc(C)c5[nH]4)c3)cc2)CC1` ; field requested: Inhibition
*A* 85

*Q* Query (compound): `CN(Cc1cccc(F)c1)C1CCN(c2cc(NC(=O)c3cccc(F)c3)ccn2)CC1.O=C(O)C(F)(F)F` ; field requested: Inhibition
*A* 12

*Q* Query (compound): `Br.c1ccc(-c2ccc(-c3csc(Nc4ccncc4)n3)cc2)cc1` ; field requested: Inhibition
*A* 30

*Q* Query (compound): `CC1(C)CCCN(C(=O)c2cccc(-n3nc(-c4ccc(Cl)cc4)cc3N)c2)C1` ; field requested: Inhibition
*A* 13

*Q* Query (compound): `O=C(Nc1cccc(-c2ccc(-c3nc4ccccc4[nH]3)cc2)c1)Nc1ccc2c(c1)OCO2` ; field requested: Inhibition
*A* 20

*Q* Query (compound): Cc1cc(OC(C)C(=O)N2CCc3ccccc32)ccc1Cl (centres undefined) ; field requested: Inhibition
*A* 20

*Q* Query (compound): `COc1c(CN2CCOCC2)cccc1-c1cc2c(-c3ccc(C(=O)O)c(C(C)C)c3)ccnc2[nH]1.O=C(O)C(F)(F)F` ; field requested: Inhibition
*A* 44

*Q* Query (compound): `N=C(N)Nc1nc(-c2cccc(NC(=O)CCCCCCCON3C(N)=NC(N)=NC34CCCCC4)c2)cs1` ; field requested: Inhibition
*A* 1

*Q* Query (compound): `Cc1cc(OCCCN2CCC(NS(=O)(=O)c3cccc(Br)c3)CC2)c2ccccc2n1` ; field requested: Inhibition
*A* 28

----------
Tested on: Plasmodium falciparum
measurement notes: GSK_TCMDC: Inhibition of Plasmodium falciparum Dd2 in whole red blood cells, using parasite LDH activity as an index of growth. Test compounds present at 2uM
Assay type: functional
measured attribute: Inhibition (%)
Give just the number in %; leave the unit off.

Solved entries:
* COc1ccc(NC(=O)Nc2cccc(-c3ccncc3)c2)cc1N1CCN(C)CC1 | 57
* O=C(NCc1ccc(C(=O)NC2CCCCC2)cc1)c1ccc(O)c(-c2ccc(Cl)c(Cl)c2)c1 | 0
* CCc1ccc(NC(=O)N(CCCN2CCN(C)CC2)Cc2csc(-c3ccc(CNCc4ccccc4)cc3)n2)cc1.O=C(O)C(F)(F)F | 80
* O=C(NC1CCN(Cc2ccc3c(c2)OCCO3)CC1)c1ccc(-c2cccc(Cl)c2)s1.O=C(O)C(F)(F)F | 9
* Br.CC(=O)CSC(C=Cc1ccc(N(C)C)cc1)=Nc1ccccc1 | 42

*Q* // fetch Plasmodium falciparum Inhibition for `CCOc1ccc2c(=NN=Cc3ccc(OC)c(OC)c3)cc(C)[nH]c2c1`
*A* 58

*Q* // fetch Plasmodium falciparum Inhibition for COc1cc(OC)cc(-c2nn(-c3ccc([N+](=O)[O-])cc3Cl)c(=S)n2CC2CCCO2)c1 (centres undefined)
*A* 98

*Q* // fetch Plasmodium falciparum Inhibition for `COc1cc(CN=C(S)NN=C(C)c2ccccn2)cc(OC)c1OC`
*A* 92

*Q* // fetch Plasmodium falciparum Inhibition for `CCc1ccc(CN2CCC(CN(c3ccc(N4CCOCC4)c(F)c3)S(=O)(=O)c3ccc(C(C)(C)CC)cc3)CC2)cc1.Cl`
*A* 94

----------
Test system: Plasmodium falciparum
measurement notes: GSK_TCMDC: Inhibition of Plasmodium falciparum Dd2 in whole red blood cells, using parasite LDH activity as an index of growth. Test compounds present at 2uM
Format: functional
Label TRUE for high-side Inhibition (at or above 20%) and FALSE for low-side Inhibition (below it).

Sample answers from the record:
* COc1ccccc1CCNc1nc(C)cc(NCCC(=O)NCCOc2ccccc2)n1.O=C(O)C(F)(F)F | FALSE
* Cc1cccc2[nH]cc(C3CCN(CCC4CCN(C(=O)/C=C/c5ccc(Cl)c(Cl)c5)CC4)CC3)c12 | FALSE
* Cc1cc(C(=O)Nc2nc(-c3ccccn3)nc3ccsc23)no1 | TRUE
* O=S(=O)(c1cc2ccccc2s1)N(CCC(O)(C(F)(F)F)C(F)(F)F)Cc1cccc(O)c1 | TRUE
* Cn1nc(-c2ccc(CNC3CCc4ccccc43)cc2)c2cnc(NCCN3CCCC3)nc21 (stereo not drawn) | FALSE
* O=C(Nc1ccc(Cl)cc1)Nc1cccc(-c2ccc(-c3nc4ccccc4[nH]3)cc2)c1 | FALSE
* COc1cc(-c2cc3cc(Cl)c(Cl)cc3[nH]2)ccc1C(=O)NCCC1CCCN1C.O=C(O)C(F)(F)F (stereo not drawn) | TRUE
* CC(=O)COc1c(C2CCN(CCCCNC(=O)c3ccc(-c4ccc(C(F)(F)F)cc4)cc3)CC2)ccc2c1CCCC2 | TRUE
* COc1cc(CCNc2nc(NCc3ccccc3-c3ccccc3)nc(N3CCC(N)CC3)n2)ccc1O.O=C(O)C(F)(F)F | TRUE
* Cc1ccc(/C=C/C(=O)NC2CCC(N3CCC(c4ccccc4C)CC3)CC2)cc1C (stereo not drawn) | TRUE

*Q* Inhibition >= 20% for `CC(C)CNC(=O)c1ccnc(-c2ccc(CNCCCc3ccccc3)cc2)c1.O=C(O)C(F)(F)F` ?
*A* TRUE

*Q* Inhibition >= 20% for O=C(O)C(F)(F)F.S=C(Nc1cccc(Cl)c1)NC1CCN(c2ccnc3cc(Cl)ccc23)C1 (stereo not drawn) ?
*A* TRUE

*Q* Inhibition >= 20% for O=C(NCC1CCC(C(=O)NCc2cccc3ccccc23)CC1)c1ccc(O)c(-c2ccc(Cl)c(Cl)c2)c1 (stereo not drawn) ?
*A* TRUE

*Q* Inhibition >= 20% for `NC(=O)c1cccc(C(=O)Nc2cccc(-c3cccc(-c4nc5cc(F)ccc5[nH]4)c3)c2)c1` ?
*A* TRUE

*Q* Inhibition >= 20% for `O=C(Nc1ccc(-c2ccccc2)cc1)Nc1cccc(Cn2nc(Cl)c(N3CCCNCC3)cc2=O)c1.O=C(O)C(F)(F)F` ?
*A* TRUE

*Q* Inhibition >= 20% for `CN(c1ccc2c(c1)nc(NCc1ccccc1)n2C)c1ccnc(Nc2ccc(CS(C)(=O)=O)cc2)n1.Cl` ?
*A* TRUE

*Q* Inhibition >= 20% for `Cc1[nH]c2ccc(NS(C)(=O)=O)cc2c1C1CCN(CCC2CCN(C(=O)/C=C/c3ccc(Cl)c(Cl)c3)CC2)CC1` ?
*A* TRUE

*Q* Inhibition >= 20% for `CC(=O)Nc1ccc(CN2Cc3ccc(NC(=O)Nc4ccc(Oc5ccccc5)cc4)cc3C2)s1` ?
*A* TRUE
